# system name: human full-length VWF (human, UniProt P04275 764-2813)
# method description: SPR, Biacore T200, antibody captured on Protein A, full-length VWF as analyte, single-cycle kinetics
measured metric: kon (M⁻¹ s⁻¹)
Numbers only; they are read as M⁻¹ s⁻¹.

// field: kon; key: 4-H3_H3_L1 (antibody, human IgG1, kappa, V domains shown, humanised, human IgG1 kappa) VH: QVQLVESGGGVVQPGRSLRLSCAASGIDLTSNAMNWVRQAPGKGLEWIGGIYGHDTSYYAAWAKGRFTISRDNSKNTVYLQMNSLRAEDTAVYYCARGFIYFDIWGQGTLVTVSS VL: DYQMTQSPSSLSASVGDRVTITCLASEDIASGISWYQQKPGKAPKLLIYGASNLESGVPSRFSGSGSGTDYTLTISSLQPEDFATYYCLGGYSFSSNGLTFGGGTKVEIKT ; value = 115000

// field: kon; key: 4-H3_H4_L1 (antibody, human IgG1, kappa, V domains shown, humanised, human IgG1 kappa) VH: QVQLVESGGGVVQPGRSLRLSCAASGIDLTSNAMNWVRQAPGKGLEWVAGIYGHDTSYYAAWAKGRFTISRDNSKNTLYLQMNSLRAEDTATYFCARGFIYFDIWGQGTLVTVSS VL: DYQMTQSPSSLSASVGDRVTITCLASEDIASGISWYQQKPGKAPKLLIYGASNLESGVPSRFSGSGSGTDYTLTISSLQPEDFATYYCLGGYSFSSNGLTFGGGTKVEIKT ; value = 44500

// field: kon; key: 4-H3_H0_L1 rep (antibody, human IgG1, kappa, V domains shown, humanised, human IgG1 kappa) VH: QVQLVESGGGVVQPGRSLRLSCAASGFTFSSNAMNWVRQAPGKGLEWVAGIYGHDTSYYAAWAKGRFTISRDNSKNTLYLQMNSLRAEDTAVYYCARGFIYFDIWGQGTLVTVSS VL: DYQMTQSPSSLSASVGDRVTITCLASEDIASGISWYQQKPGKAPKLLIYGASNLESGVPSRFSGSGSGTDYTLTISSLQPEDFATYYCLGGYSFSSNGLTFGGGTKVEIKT ; value = 36900

This collection of values is drawn from patent US20240228660A1.
